- measured-on: Anoctamin-1 (Mus musculus)
- procedure-text: blockers of mouse ANO1 Ca-activated Cl channel – cell-based, HTS, primary screen (AID 588511)
- applied-conditions: HEK293 TMEM16A/YFP iodide influx fluorescence, ionomycin; at 10 µM
Out of some 310,000 compounds screened, about 3,600 (1.2%) were called active.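 Rule for the calls: active = ratio plate-corrected score three or more library SD toward inhibition, starting fluorescence score within five deviations; inactive = the rest.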 What follows is part of a selection rich in actives, with near analogues and random picks from the rest.
Respond using exactly one of the listed classes: active, inactive

Problem: // outcome(item) with item = CN1C(=O)/C(=C\c2cc(Br)cs2)c2ccccc21
Result: inactive

Problem: What did the test return for Cn1cncc1COC(=O)c1ccc(Cl)cc1 ?
Result: inactive

Problem: Tell me the assay call for CC(=O)Oc1ccccc1C(=O)Nc1ncc([N+](=O)[O-])s1 please.
Result: active

Problem: How was CC(C)OCCCNc1ncnc2c1[nH]c1ccc(F)cc12 classified in this test?
Result: active

Problem: Outcome logged for Nc1ccc(C(=O)OCC(=O)NC2CCS(=O)(=O)C2)cc1[N+](=O)[O-] (stereo not given) in this assay:
Result: inactive

Problem: Name the outcome recorded for CSCCC(C(=O)NC1=NCCS1)N1C(=O)c2ccccc2C1=O (stereo not given) in the assay.
Result: inactive

Problem: Hi, sorry to bother you, what did the test record for O=[N+]([O-])C(=c1ccc2c(c1)N1C3=C(CCCC3)CC3CCCCC31N=2)[N+](=O)[O-] (stereo not given) ?
Result: inactive

Problem: Which outcome was entered for the molecule O=C(Nc1cccc(Cl)c1Cl)c1ccccc1NC(=O)C1CC=CCC1C(=O)O (stereo not given) in this test?
Result: inactive

Problem: Could you kindly confirm the outcome this assay logged for S=C(NN=C1CCN(Cc2ccccc2)CC1)NC1CCCCC1 ?
Result: inactive

Problem: Status in this test for C=C(C)c1cccc(C(C)(C)NC(=O)N2CCN(c3ncccn3)CC2)c1 ?
Result: inactive

Problem: What did this assay record as the result for CCC1CCCCN1C(=S)Nc1ccc(SC(F)F)cc1 (stereo not given) ?
Result: inactive

Problem: What did this assay record as the result for CS(=O)(=O)N1CCN=C1SCc1ccc(F)cc1 ?
Result: inactive

Problem: Given CCSc1nsc(NC(=O)Nc2cccc(C(C)=O)c2)n1 , state the outcome it received in this test.
Result: inactive

Problem: For this molecule, state the assay outcome: Cc1cnc(NC(=O)c2ccccn2)s1
Result: inactive

Problem: Test call, this molecule: COc1ccc(OC)c2sc(NC(=O)C3COc4ccccc4O3)nc12 (stereo not given)
Result: inactive

Problem: Please share the test call associated with CN1/C(=C\C(=O)c2oc3ccccc3c2N)C(C)(C)c2ccccc21 .
Result: inactive

Problem: Test call, this molecule: Cc1ccc(NC(=O)CN2C(=O)NC(C)(c3ccc(Cl)cc3)C2=O)c(Br)c1 (stereo not given)
Result: inactive

Problem: Which result was noted for this molecule in the test: CC(Cc1cccs1)NC(=O)c1cccc(Cl)c1 (stereo not given)
Result: inactive

Problem: Just curious, what result did S=C(NCCc1ccccc1)Nc1ccccc1 get here?
Result: inactive

Problem: Assay result, entry CCOC(=O)c1cc(NC(=O)c2ccc(Cl)cc2)c(=O)oc1-c1ccccc1 — outcome?
Result: inactive

Problem: Outcome logged for CC(=O)N1CCCc2cc(S(=O)(=O)N3CCCC(C(=O)NCc4ccc(Cl)cc4)C3)ccc21 (stereo not given) in this assay:
Result: inactive

Problem: Assay outcome for CCn1nccc1C(=O)Nc1ccc(S(=O)(=O)NC23CC4CC(CC(C4)C2)C3)cc1 : what was it?
Result: active

Problem: Per the records of this test, what outcome belongs to CCC(CC)C(=O)Nc1c2c(nn1-c1ccc(C)cc1)CS(=O)(=O)C2 ?
Result: inactive

Problem: What was the test verdict on CC1(C)CC(N2CCN(C(c3ccccc3)c3ccccc3)CC2)=CC(=[N+]2CCCCC2)C1 ?
Result: active

Problem: What was the test verdict on CC1(C)CC(=O)C=C(N2CCCC2)C1 ?
Result: inactive

Problem: Field: outcome | Entry: COCCN(C(=O)CCC(=O)Nc1nccs1)C(C(=O)NCCC(C)C)c1ccc(F)cc1 (stereo not given)
Result: inactive

Problem: Check the results log: what was the call for C=CCSc1nsc(NC(=O)Nc2cccc(C(C)=O)c2)n1 ?
Result: active

Problem: Outcome logged for COc1ccc(NC(=O)c2ccccc2[N+](=O)[O-])cc1OC in this assay:
Result: inactive

Problem: Hello, I am checking results. What call was entered for Cc1cc(C)c(NC(=O)CN2CCCCCC2)c(C)c1 ?
Result: inactive

Problem: Returns: the outcome recorded for Cc1oc2nc(SCC(=O)Nc3ccc(S(N)(=O)=O)cc3)nc(NC(=O)c3ccccc3)c2c1C in this assay.
Result: inactive

Problem: What classification did CC(=O)N1CCCc2cc(S(=O)(=O)N3CCCC(C(=O)N4CCN(c5cccc(Cl)c5)CC4)C3)ccc21 (stereo not given) end up with in this test?
Result: active

Problem: Short answer needed: outcome of this test for O=C(Nc1ccccc1)Nc1nnc(COc2ccccc2F)s1 ?
Result: inactive

Problem: Could you check what this test reported for C[C@@H]1C[C@@H]2O[C@H]2/C=C\C=C\C(=O)Cc2c(Cl)c(O)cc(O)c2C(=O)O1 ?
Result: inactive

Problem: Which outcome did this test record for the molecule Cc1cc(C(F)F)n2nc(C(=O)Nc3ccc(S(=O)(=O)NC45CC6CC(CC(C6)C4)C5)cc3)nc2n1 ?
Result: inactive

Problem: Called result for O=C(Nc1ncc([N+](=O)[O-])s1)C1COc2ccccc2O1 (stereo not given)
Result: active

Problem: Can you look up the reported call for CCC(C(=O)NCCC(C)C)N(Cc1ccccc1Cl)C(=O)c1snc(C(N)=O)c1N (stereo not given) for me?
Result: inactive

Problem: // outcome(item) with item = COc1ccc(NC(=O)C2COc3ccccc3O2)cc1 (stereo not given)
Result: inactive

Problem: What did this assay record as the result for CCN(C(=O)Cc1nc(N)n[nH]1)C1(C(=O)Nc2ccccc2)CCCCC1 ?
Result: inactive

Problem: Recorded test call requested for CSc1nsc(NC(=O)Nc2ccccc2)n1
Result: active

Problem: What outcome does the record of this test show for CC(=O)Nc1cccc(OCC(=O)/C=C2\N(C)c3ccccc3C2(C)C)c1 ?
Result: active

Problem: For CCOC(=O)N1CCC(=NNC(N)=O)CC1 , which call appears in the assay record?
Result: inactive

Problem: Hi, do you know how CCSc1nsc(NC(=O)Nc2ccccc2OC)n1 came out in this test?
Result: inactive

Problem: In this assay, the call recorded for S=C(Nc1ccc(Br)cc1Cl)NC1CCN(Cc2ccccc2)CC1 was what?
Result: inactive

Problem: Dear colleague, could you share the recorded outcome for Cc1c(C(=O)NC(=S)NCc2cccnc2)oc2ccccc12 when you have a moment?
Result: inactive

Problem: Call for entry CN1OC(COC(=O)c2ccc(Cl)cc2)CC1c1ccccc1 (stereo not given) :
Result: active
